meta.source: the pKa sets of Baltruschat and Czodrowski (2020)

Measured pKa of individual entries
# EXPERIMENTAL CONTEXT: basic group

Would you please look over these solved cases?
- COMPOUND: "O=C1CC[C@H]2N1CC[C@H]1c3ccccc3CCN12"
  READING: 4.89
- COMPOUND: "[O-]c1c(Cl)c(Cl)cc(Cl)c1CN1CCOCC1"
  READING: 8.23
- COMPOUND: "C#C[C@]1(O)C[C@@H](C)N(C)[C@H]2CCCC[C@@H]21"
  READING: 8.99
- COMPOUND: "COc1c2ccccc2nc2ccccc12"
  READING: 7
- COMPOUND: "N/C(=N\\O)C(N)Cc1ccccc1 (centres undefined)"
  READING: 7.06
- COMPOUND: "NCC(=O)NCC(=O)[O-]"
  READING: 8.31

Now for a further compound.
Q: Can you look up the measured pKa of `Cc1cc(Br)cc(C)c1N(C)C` for me?
A: 4.36
